- System: SK-MEL-5
- Measurement Protocol: NCI tumour cell line growth inhibition, 48 h
Calls of active or inactive are those of the source. Cut-off read from the data, not from the text of the source: active = GI50 up to about 1.1 µM and inactive = higher.
Value Type: GI50

[
  {
    "Molecule": "CC(C)(C)NCc1cc(C(C)(C)C)cc(-c2ccc(Cl)cc2)c1O",
    "GI50": "16.2 µM (inactive)"
  }
]

Q. Given the entry COc1cccc(C2CC(C)(O)Oc3cc4c(cc32)OCO4)c1O (stereo not given) , report its measured GI50.
A. 9.31 µM (inactive)

Q. For the molecule shown here, Cc1cccc(C)c1NC(=O)C1C(=O)N(c2c(C)cccc2C)C(=O)/C1=N\N (stereo not given) , give the reported GI50.
A. > 100 µM (inactive)

Q. May I ask what GI50 has been recorded for Cc1c/c(=N\c2ccc3c(c2)c(N)cc(C)[n+]3C)nc(N)n1C ?
A. > 100 µM (inactive)

Q. Quick one: GI50 of CCCCCCCC(=O)OCC1OC(n2cc(F)c(=O)[nH]c2=O)C(NC(=O)OCc2ccccc2)C(O)C1O (stereo not given) ?
A. 1.55 µM (inactive)
